# Test system: Mus musculus
# Assay Comment: Inhibition of hind limb tonus was tested by maximal electroshock test (MES) in mouse after 1 hr of peroral administration of compound
# Type: functional
# Condition Details: Hindlimb, po
Experimental Readout: ED50 (mg/kg)
Dear colleague, please return just the value in mg/kg, with no unit written.

Worked examples, 3 compounds total:
NC(=O)N1c2ccccc2C=Cc2ccccc21 [CARBAMAZEPINE] ... 20
CN(N)c1nnc(-c2ccccc2-c2ccccc2)s1 ... 18
CCC1(c2ccccc2)C(=O)NC(=O)NC1=O [PHENOBARBITAL] ... 12

INPUT: Output measured ED50 for this item: O=C1NC(=O)C(c2ccccc2)(c2ccccc2)N1 [PHENYTOIN]
OUTPUT: 8

---

Items are presented alongside their recorded TD50 at 1 h.
# Assay Comment: Neurotoxicity by performing a rotarod test in mouse after 1 hr of administration
# Type: toxicity, organism-based
# Condition Details: in vivo
Dear colleague, please return just the value in mg/kg, with no unit written.

INPUT: Output measured TD50 at 1 h for this item: "Cc1ccccc1-c1nnc(NNC(C)C)s1"
OUTPUT: 449

INPUT: Output measured TD50 at 1 h for this item: "CN(N)c1nnc(-c2ccccc2Cl)s1.Cl"
OUTPUT: 136

INPUT: Output measured TD50 at 1 h for this item: "CNN(C)c1nnc(-c2ccccc2Cl)s1"
OUTPUT: 106

INPUT: Output measured TD50 at 1 h for this item: "CNN(C)c1nnc(-c2ccccc2C)s1"
OUTPUT: 72

---

# Assay Comment: Neurotoxicity by performing a rotarod test in mouse after 1 hr of administration
# Assay type: toxicity, organism-based
# Condition Details: in vivo
Items are presented alongside their recorded TD50 at 1 h.
Dear colleague, please return just the value in mg/kg, with no unit written.

Worked examples, 5 compounds total:
Cc1ccccc1-c1nnc(NN)s1.Cl ... 55
Cc1ccccc1-c1nnc(N(C)N)s1.Cl ... 108
CC(C)NN(C)c1nnc(-c2ccccc2Cl)s1.Cl ... 71
Cl.NNc1nnc(-c2ccccc2-c2ccccc2)s1 ... 627
Cc1ccccc1-c1nnc(N(C)N(C)C)s1 ... 167

INPUT: Output measured TD50 at 1 h for this item: "CC(C)NNc1nnc(-c2ccccc2Cl)s1"
OUTPUT: 200

INPUT: Output measured TD50 at 1 h for this item: "CNN(Cc1ccccc1)c1nnc(-c2ccccc2C)s1.Cl"
OUTPUT: 341

INPUT: Output measured TD50 at 1 h for this item: "CN(N)c1nnc(Cc2ccccc2)s1.Cl"
OUTPUT: 280

INPUT: Output measured TD50 at 1 h for this item: "CN(N)c1nnc(CCc2ccccc2)s1.Cl"
OUTPUT: 317

INPUT: Output measured TD50 at 1 h for this item: "CN(C)N(C)c1nnc(-c2ccccc2Cl)s1.Cl"
OUTPUT: 347

---

# Assay Comment: Neurotoxicity by performing a rotarod in mouse after 1 hr of administration
# Format: toxicity, organism-based
# Condition Details: in vivo
Experimental Readout: TD50 at 1 h (mg/kg)
Dear colleague, please return just the value in mg/kg, with no unit written.

INPUT: Output measured TD50 at 1 h for this item: "COCN(N)c1nnc(-c2ccccc2Cl)s1"
OUTPUT: 80

---

# Assay Comment: Effect of compound on mouse motor performance was studied by performing a rotarod test in mouse dosing intraperitoneally at time of peak effect.
# Assay type: ADME, organism-based
# Condition Details: in vivo, ip
Experimental Readout: TD50
Your answer should be a number followed by the unit of measure.

INPUT: Output measured TD50 for this item: "CN(N)c1nnc(-c2ccccc2-c2ccccc2)s1"
OUTPUT: 93 mg/kg

---

# Assay Comment: Effect of compound on mouse motor performance was tested by performing a rotarod test after 1 hr of peroral administration
# Format: ADME, organism-based
# Condition Details: in vivo, po
Experimental Readout: TD50 at 1 h (mg/kg)
Dear colleague, please return just the value in mg/kg, with no unit written.

INPUT: Output measured TD50 at 1 h for this item: CCC1(c2ccccc2)C(=O)NC(=O)NC1=O [PHENOBARBITAL]
OUTPUT: 68

---

# Test system: Mus musculus
# Assay Comment: Anticonvulsant activity tested by maximal electroshock test (MES) in mouse after 1 hr of administration
# Type: functional
Items are presented alongside their recorded ED50.

Worked examples, 2 molecules total:
CCCCCCOc1ccccc1-c1nnc(NNC(C)C)s1.Cl ... > 100 mg/kg
CCNN(Cc1ccccc1)c1nnc(-c2ccccc2C)s1.Cl ... > 100 mg/kg

INPUT: Output measured ED50 for this item: "Cl.c1ccc(NNc2nnc(-c3ccccc3-c3ccccc3)s2)cc1"
OUTPUT: > 100 mg/kg

INPUT: Output measured ED50 for this item: "Cc1ccccc1-c1nnc(N(C)NC2CCCC2)s1.Cl"
OUTPUT: 110 mg/kg

INPUT: Output measured ED50 for this item: "CNN(Cc1ccccc1)c1nnc(-c2ccccc2C)s1.Cl"
OUTPUT: 109 mg/kg

INPUT: Output measured ED50 for this item: "CCCCCCOc1ccccc1-c1nnc(N(C)NC(C)C)s1.Cl"
OUTPUT: 97 mg/kg

---

# Tested on: Mus musculus
# Assay Comment: Anticonvulsant activity tested by maximal electroshock test (MES) in mouse after 1 hr of administration
# Assay type: functional
Friendly reminder: ED50 below 50 mg/kg is 1, at or above is 0.

The examples below pair each entry with its known result.
NN(Cc1ccccc1)c1nnc(-c2ccccc2Cl)s1 ... 0
Cc1ccccc1-c1nnc(NN(C)C(C)C)s1 ... 0
CC(C)N(N)c1nnc(-c2ccccc2Cl)s1 ... 0

INPUT: Is 50 mg/kg strictly greater than the compound's reported ED50? compound: "CN(Nc1ccccc1)c1nnc(-c2ccccc2Cl)s1"
OUTPUT: 0

INPUT: Is 50 mg/kg strictly greater than the compound's reported ED50? compound: "CC(C)N(c1nnc(-c2ccccc2Cl)s1)N(C)C.Cl"
OUTPUT: 0

---

# System: Mus musculus
# Assay Comment: Anticonvulsant activity tested by maximal electroshock test (MES) in mouse after 1 hr of administration
# Assay type: functional
Items are presented alongside their recorded ED50.

Worked examples, 3 molecules total:
CCCCCCOc1ccccc1-c1nnc(N(C)N)s1.Cl ... 26 mg/kg
CN(N)c1nnc(CCc2ccccc2)s1.Cl ... 51 mg/kg
Clc1ccccc1-c1nnc(NNc2ccccc2)s1 ... > 100 mg/kg

INPUT: Give measured ED50 for "Clc1ccccc1-c1nnc(NNC2CCCC2)s1" (Mus musculus).
OUTPUT: > 100 mg/kg

INPUT: Give measured ED50 for "Cl.NNc1nnc(-c2ccc(-c3ccccc3)cc2)s1" (Mus musculus).
OUTPUT: > 200 mg/kg

---

# Test system: Mus musculus
# Assay Comment: Anticonvulsant activity tested by maximal electroshock test (MES) in mouse after 1 hr of administration
# Format: functional
Experimental Readout: ED50 (mg/kg)
Dear colleague, please return just the value in mg/kg, with no unit written.

Worked examples, 5 compounds total:
CN(N)c1nnc(-c2cccc(Oc3ccccc3)c2)s1 ... 100
Cl.NNc1nnc(-c2ccccc2Cl)s1 ... 70
COCN(N)c1nnc(-c2ccccc2Cl)s1 ... 50
Cc1ccccc1-c1nnc(N(N)C(C)C)s1.Cl ... 54
Cc1ccccc1-c1nnc(NNC(C)C)s1 ... 83

# evaluate next
INPUT: Output measured ED50 for this item: "CC(C)NN(C)c1nnc(-c2ccccc2Cl)s1.Cl"
OUTPUT: 16

---

# Assay Comment: Effect of compound on mouse motor performance was tested by rotarod test administered intraperitoneally
# Format: ADME, organism-based
# Condition Details: in vivo, ip
Experimental Readout: TD50 (mg/kg)
Dear colleague, please return just the value in mg/kg, with no unit written.

INPUT: Output measured TD50 for this item: CCC1(c2ccccc2)C(=O)NC(=O)NC1=O [PHENOBARBITAL]
OUTPUT: 86

---

# Assay Comment: Effect of compound on mouse motor performance was tested by rotarod test after 1 hr of peroral administration
# Format: ADME, organism-based
# Condition Details: in vivo, po
Experimental Readout: TD50 at 1 h

INPUT: Output measured TD50 at 1 h for this item: "CN(N)c1nnc(-c2ccccc2-c2ccccc2)s1"
OUTPUT: > 1000 mg/kg

---

# System: Mus musculus
# Assay Comment: Anticonvulsant activity tested by maximal electroshock test (MES) in mouse after 1 hr of administration
# Type: functional
Experimental Readout: ED50

Worked examples, 2 molecules total:
CNNc1nnc(-c2ccccc2C)s1 ... > 100 mg/kg
Cc1ccccc1-c1nnc(NNc2ccccc2)s1 ... > 100 mg/kg

INPUT: Give measured ED50 for "Cl.Clc1ccccc1-c1nnc(NNCc2ccccc2)s1" (Mus musculus).
OUTPUT: > 100 mg/kg

---

# Assay Comment: Neurotoxicity by performing a rotarod test in mouse after 1 hr of administration
# Assay type: toxicity, organism-based
# Condition Details: in vivo
Experimental Readout: TD50 at 1 h

Worked examples, 4 molecules total:
CN(N)c1nnc(-c2ccccc2Oc2ccccc2)s1.Cl ... < 400 mg/kg
Cc1ccccc1-c1nnc(N(N)c2ccccc2)s1 ... > 400 mg/kg
Cl.NNc1nnc(-c2ccccc2Cl)s1 ... > 568 mg/kg
Cc1ccccc1-c1nnc(NN(C)C)s1.Cl ... > 250 mg/kg

INPUT: Output measured TD50 at 1 h for this item: "CC(C)N(N)c1nnc(-c2ccccc2Cl)s1"
OUTPUT: > 800 mg/kg

Origin of measurements: ChEMBL document CHEMBL1123516
